Target: Serine/threonine-protein kinase 24 (Homo sapiens)
Sequence (Q9Y6E0 whole entry): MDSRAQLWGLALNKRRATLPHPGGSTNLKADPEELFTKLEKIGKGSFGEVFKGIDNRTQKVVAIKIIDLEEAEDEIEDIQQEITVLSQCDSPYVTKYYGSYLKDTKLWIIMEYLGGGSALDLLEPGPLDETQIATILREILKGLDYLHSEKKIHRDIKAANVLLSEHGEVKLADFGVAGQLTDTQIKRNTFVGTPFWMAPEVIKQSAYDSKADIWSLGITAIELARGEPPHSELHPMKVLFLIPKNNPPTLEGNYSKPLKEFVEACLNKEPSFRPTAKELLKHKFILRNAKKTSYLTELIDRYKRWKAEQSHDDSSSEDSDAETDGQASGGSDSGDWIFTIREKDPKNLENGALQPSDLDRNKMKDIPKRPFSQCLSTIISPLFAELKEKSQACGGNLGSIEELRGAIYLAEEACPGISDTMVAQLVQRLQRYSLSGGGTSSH
Assay: Binding affinity to recombinant full-length N-terminal His-FLAG-tagged STK24 (unknown origin) expressed in baculovirus infected Sf9 insect cells incubated for 1 hr by TR-FRET assay

[
  {
    "molecule": "CO[C@@H]1[C@H](N(C)CCOCCOCCOCCNC(=O)CCC2=[N+]3C(=Cc4c(C)cc(C)n4[B-]3(F)F)C=C2)C[C@H]2O[C@]1(C)n1c3ccccc3c3c4c(c5c6ccccc6n2c5c31)C(=O)NC4",
    "Kd, nM": 767
  },
  {
    "molecule": "CO[C@@H]1[C@H](NCCOCCOCCOCCNC(=O)CCC2=[N+]3C(=Cc4c(C)cc(C)n4[B-]3(F)F)C=C2)C[C@H]2O[C@]1(C)n1c3ccccc3c3c4c(c5c6ccccc6n2c5c31)C(=O)NC4",
    "Kd, nM": 436
  }
]
